- TARGET ENTITY: T1, human CTGF (Homo sapiens, UniProt P29279, H83D)
- T1 construct: purchased Creative Biomart
- T1 sequence (P29279 with tags, fused parts or gaps H83D): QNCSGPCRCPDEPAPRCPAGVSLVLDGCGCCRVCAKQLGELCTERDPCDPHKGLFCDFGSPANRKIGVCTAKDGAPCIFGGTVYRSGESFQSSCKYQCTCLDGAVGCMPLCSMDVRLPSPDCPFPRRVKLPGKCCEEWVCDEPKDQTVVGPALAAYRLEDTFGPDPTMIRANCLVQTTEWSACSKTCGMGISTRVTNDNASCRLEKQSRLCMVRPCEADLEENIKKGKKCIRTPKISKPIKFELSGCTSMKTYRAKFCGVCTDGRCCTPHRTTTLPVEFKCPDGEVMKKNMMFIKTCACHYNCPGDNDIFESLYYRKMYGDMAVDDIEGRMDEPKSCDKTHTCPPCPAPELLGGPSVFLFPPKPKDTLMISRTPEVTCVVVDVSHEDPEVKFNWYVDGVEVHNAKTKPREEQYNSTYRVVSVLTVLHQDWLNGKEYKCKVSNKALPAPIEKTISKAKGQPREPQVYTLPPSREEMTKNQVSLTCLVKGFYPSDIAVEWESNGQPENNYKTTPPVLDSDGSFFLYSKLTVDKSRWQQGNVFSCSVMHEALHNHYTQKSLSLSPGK
- ASSAY EXPLANATION: SPR binding kinetics and affinity, human CTGF
- REPORTED CONDITIONS: 25° C., 1:1 binding model
REPORTED ENDPOINT: human CTGF kon (M⁻¹ s⁻¹)

* SEQ ID NO: 19: optimized CTGF-binding hNGAL lipocalin mutein (protein, lipocalin mutein) QDSTSDLIPAPPLSKVPLQQNFQDNQFQGKWYVVGLAGNAILREDKQPAKMFATIYELKEDKSYDVTSVRFEAKSCSYTIKTFVPGSQPGEFTAGNIKSAPGQTSTLVRVVSTNYNQHAMVFHKAVSQNRESFVITLYGRTKELTSELKENFIRFSKSLGLPENHIVFPVPIDQCIDG | 56600
* SEQ ID NO: 3: parent CTGF-binding hNGAL lipocalin mutein (protein, lipocalin mutein) QDSTSDLIPAPPLSKVPLQQNFQDNQFHGKWYVVGRAGNNRLREDKDPPKMWATIYELKEDKSYNVTHVHFMTKKCRYIIDTFVPGSQPGEFTLGAIKSGPGMTSPLVRIVSTNYNQHAMVFFKWVNQNREWFTITLYGRTKELTSELKENFIRFSKSLGLPENHIVFPVPIDQCIDG | 200000
* SEQ ID NO: 23: optimized CTGF-binding hNGAL lipocalin mutein (protein, lipocalin mutein) QDSTSDLIPAPPLSKVPLQQNFQDNQFQGKWYVVGVAGNAILRPDKQPAKMFATIYELKEDKSYDVTSVRFEAKSCKYTIKTFVPGSQPGEFTSGQIKSAPGQTSTLVRVVSTNYNQHAMVFFKHVSQNREIFVITLYGRTKELTSELKENFIRFSKSLGLPENHIVFPVPIDQCIDG | 122000
